# assay-name: Tmax in fasted healthy human at 100 mg/kg, po
# Assay type: ADME, organism-based
# Design: dose 100 mg/kg, route oral
# condition-info: in vivo
property-label: Tmax (h)
Report only the number, with the unit h understood.

So, COC(=O)N[C@H](C(=O)N1CC2(CC2)C[C@H]1c1nc(-c2ccc3c(c2)C(F)(F)c2cc(-c4ccc5[nH]c([C@@H]6[C@H]7CC[C@H](C7)N6C(=O)[C@@H](NC(=O)OC)C(C)C)nc5c4)ccc2-3)c[nH]1)C(C)C ? Its Tmax was 5.5

* * *

# assay-name: Mean residence time in beagle dog at 0.2 mg/kg, iv
# Assay type: ADME, organism-based, Canis lupus familiaris
# Design: dose 0.2 mg/kg, route intravenous
# condition-info: in vivo
property-label: MRT (h)
Report only the number, with the unit h understood.

So, COC(=O)N[C@H](C(=O)N1CCC[C@H]1c1ncc(-c2ccc(-c3ccc(-c4ccc5nc([C@@H]6[C@H]7CC[C@H](C7)N6C(=O)[C@@H](NC(=O)OC)C(C)C)[nH]c5c4)cc3)cc2)[nH]1)C(C)C ? Its MRT was 5.47

So, COC(=O)N[C@H](C(=O)N1CC2(CC2)C[C@H]1c1nc(-c2ccc3c(c2)C(F)(F)c2cc(-c4ccc5[nH]c([C@@H]6[C@H]7CC[C@H](C7)N6C(=O)[C@@H](NC(=O)OC)C(C)C)nc5c4)ccc2-3)c[nH]1)C(C)C ? Its MRT was 9.2

So, COC(=O)N[C@H](C(=O)N1CCC[C@H]1c1ncc(-c2ccc3c(c2)C(F)(F)c2cc(-c4ccc5nc([C@@H]6CCCN6C(=O)[C@@H](NC(=O)OC)C(C)C)[nH]c5c4)ccc2-3)[nH]1)C(C)C ? Its MRT was 3.69

So, COC(=O)N[C@H](C(=O)N1CCC[C@H]1c1ncc(-c2ccc(-c3ccc(-c4cnc([C@@H]5[C@H]6CC[C@H](C6)N5C(=O)[C@@H](NC(=O)OC)C(C)C)[nH]4)cc3)cc2)[nH]1)C(C)C ? Its MRT was 6.6

So, COC(=O)N[C@H](C(=O)N1CCC[C@H]1c1ncc(-c2ccc(-c3ccc(-c4ccc5nc([C@@H]6CCCN6C(=O)[C@@H](NC(=O)OC)C(C)C)[nH]c5c4)cc3)cc2)[nH]1)C(C)C ? Its MRT was 3
